measured on: full-length beta-Catenin (Uniprot ID P35222) (Homo sapiens, UniProt P35222)
Construct: 10 nM full-length beta-Catenin (Uniprot ID P35222)
test summary: Fluorescence polarization IC50 (beta-catenin / 5FAM-TCF4 10-53 competition)
Assay type: binding
setup conditions: fluorescence polarization; read-out: beta-Catenin FP IC50
Entries and their pIC50 values follow.
Scale note: pIC50 = -log10(concentration in M).

>  <molecule>
CC(=O)N1CCC[C@]12CC=CCCCC1(CCCC=CCCCOC(=O)N3CC[C@@](C(=O)N[C@@H](Cc4cccc5ccccc45)C(=O)N[C@@H](Cc4csc5ccccc45)C(=O)N[C@@H](CO)C(N)=O)(C3)NC(=O)[C@H]([C@@H](C)O)NC(=O)[C@H](Cc3ccccc3)NC(=O)[C@H](C)NC(=O)[C@H](C)NC(=O)[C@H]([C@@H](C)O)NC(=O)[C@H](CC(=O)O)NC1=O)NC(=O)[C@H](CC(C)(C)C)NC(=O)[C@H](CC(=O)O)NC2=O (some centres unmarked) [I-1269]

>  <pIC50>
6.76

$$$$

Please turn your attention to the following entry.
Identify pIC50 associated with the molecule CC(=O)N1CCC[C@]12CC=CCCCC1(CCCC=CCCCCCC[C@@](C)(C(=O)N[C@@H](Cc3ccsc3)C(=O)N[C@@H](Cc3csc4ccccc34)C(=O)N[C@@H](CCC(N)=O)C(N)=O)NC(=O)[C@H](CC(N)=O)NC(=O)[C@H](Cc3ccccc3)NC(=O)[C@H](C)NC(=O)[C@H](C)NC(=O)[C@H](CCC(=O)O)NC(=O)[C@H](CC(=O)O)NC1=O)NC(=O)[C@H](CC(C)(C)C)NC(=O)[C@H](CC(=O)O)NC2=O (some centres unmarked) [I-682]
7.39

----------
test summary: CHI Log D procedure
Assay type: physicochemical
setup conditions: pH 7.4, CHI Log D
property name: logD
Please state the value as a number alone, without comment.

Identify logD associated with the compound CC(=O)N1CCC[C@]12CC=CCCCC1(CCCC=CCCCCCC[C@@](C)(C(=O)N[C@@H](Cc3ccsc3)C(=O)N[C@@H](Cc3csc4ccccc34)C(=O)N[C@@H](CCC(N)=O)C(=O)N[C@@H](C)C(=O)N[C@@H](C)C(=O)N[C@@H](C)C(N)=O)NC(=O)[C@H](CC(N)=O)NC(=O)[C@H](Cc3ccccc3)NC(=O)[C@H](C)NC(=O)[C@H](C)NC(=O)[C@H](CC(=O)O)NC(=O)[C@H](CC(=O)O)NC1=O)NC(=O)[C@H](CC(C)(C)C)NC(=O)[C@H](CC(=O)O)NC2=O (stereo partly shown) [I-874]
2.31

----------
Entries and their chromatographic logD values follow.
test summary: CHI Log D procedure
Assay type: physicochemical
setup conditions: pH 7.4, CHI Log D
Please state the value as a number alone, without comment.

>  <compound>
CC(=O)N1CCC[C@]12CC=CCCCC1(CCCC=CCCCOC(=O)N3CC[C@@](C(=O)N[C@@H](Cc4ccccc4Cl)C(=O)N[C@@H](Cc4csc5ccccc45)C(=O)N[C@@H](CCC(N)=O)C(=O)NCCCCCCN=[N+]=[N-])(C3)NC(=O)[C@H](Cc3ccccc3)NC(=O)[C@H](Cc3ccccc3)NC(=O)[C@H](C)NC(=O)[C@H](C)NC(=O)[C@H](CN(CC(=O)O)CC(F)(F)F)NC(=O)[C@H](CC(=O)O)NC1=O)NC(=O)[C@H](CC(C)(C)C)NC(=O)[C@H](CC(=O)O)NC2=O (some centres unmarked)

>  <chromatographic logD>
3.7

$$$$

Please turn your attention to the following entry.
Identify chromatographic logD associated with the compound COc1cccc(C[C@@H]2NC(=O)[C@H](C)NC(=O)[C@H](C)NC(=O)[C@H](CC(=O)O)NC(=O)[C@H](CC(=O)O)NC(=O)C3(CCCC=CCCCOC(=O)N4CC[C@@](C(=O)N[C@@H](Cc5ccccc5)C(=O)N[C@@H](Cc5csc6ccccc56)C(=O)N[C@@H](CCC(N)=O)C(N)=O)(C4)NC(=O)[C@H](CO)NC2=O)CCCC=CC[C@]2(CCCN2C(C)=O)C(=O)N[C@@H](CC(=O)O)C(=O)N[C@@H](CC2CCCCC2)C(=O)N3)c1 (some centres unmarked)
2.22

----------
test summary: Solubility in PBS
Type: physicochemical
setup conditions: Solubility (uM)
property name: Solubility (µM)
The reply should be a number in µM, with the unit left off.

The examples below pair each entry with its known result.
>  <compound>
CC(=O)N1CCC[C@]12CC=CCCCC1(CCCC=CCCCCCC[C@@](C)(C(=O)N[C@@H](Cc3ccc(O)cc3)C(=O)N[C@@H](Cc3csc4ccccc34)C(=O)N[C@@H](CCC(N)=O)C(N)=O)NC(=O)[C@H](C(C)C)NC(=O)[C@H](Cc3ccccc3)NC(=O)[C@H](C)NC(=O)[C@H](C)NC(=O)[C@H](CC(=O)O)NC(=O)[C@H](CC(=O)O)NC1=O)NC(=O)[C@H](C)NC(=O)[C@H](CC(=O)O)NC2=O (stereo partly drawn)

>  <property name>
Solubility

>  <observed>
38

$$$$
>  <compound>
CC[C@H](C)[C@@H]1NC(=O)[C@H](CC(=O)O)NC(=O)[C@]2(CC=CCCCC3(CCCC=CCCCCCC[C@@](C)(C(=O)N[C@@H](Cc4ccsc4)C(=O)N[C@@H](Cc4csc5ccccc45)C(=O)N[C@@H](Cc4c[nH]cn4)C(N)=O)NC(=O)[C@H](CC(N)=O)NC(=O)[C@H](Cc4ccccc4)NC(=O)[C@H](C)NC(=O)[C@H](C)NC(=O)[C@H](CCC(=O)O)NC(=O)[C@H](CC(=O)O)NC3=O)NC1=O)CCCN2C(C)=O (stereo partly drawn)

>  <property name>
Solubility

>  <observed>
15

$$$$

Please turn your attention to the following entry.
Identify Solubility associated with the compound CC(=O)N1CCC[C@]12CC=CCCCC1(CCCC=CCCCOC(=O)N3CC[C@@](C(=O)N[C@@H](Cc4ccsc4)C(=O)N[C@@H](Cc4csc5ccccc45)C(=O)N[C@@H](CC(N)=O)C(=O)N[C@H](C)C(N)=O)(C3)NC(=O)[C@H](CC(N)=O)NC(=O)[C@H](Cc3ccccc3)NC(=O)[C@H](C)NC(=O)[C@H](C)NC(=O)[C@H](CC(=O)O)NC(=O)[C@H](CC(=O)O)NC1=O)NC(=O)[C@H](CC(C)(C)C)NC(=O)[C@H](CC(=O)O)NC2=O (stereo partly drawn)
36

----------
Entries and their pIC50 values follow.
measured on: full-length beta-Catenin (Uniprot ID P35222) (Homo sapiens, UniProt P35222)
Construct: 10 nM full-length beta-Catenin (Uniprot ID P35222)
Sequence (P35222 1-781): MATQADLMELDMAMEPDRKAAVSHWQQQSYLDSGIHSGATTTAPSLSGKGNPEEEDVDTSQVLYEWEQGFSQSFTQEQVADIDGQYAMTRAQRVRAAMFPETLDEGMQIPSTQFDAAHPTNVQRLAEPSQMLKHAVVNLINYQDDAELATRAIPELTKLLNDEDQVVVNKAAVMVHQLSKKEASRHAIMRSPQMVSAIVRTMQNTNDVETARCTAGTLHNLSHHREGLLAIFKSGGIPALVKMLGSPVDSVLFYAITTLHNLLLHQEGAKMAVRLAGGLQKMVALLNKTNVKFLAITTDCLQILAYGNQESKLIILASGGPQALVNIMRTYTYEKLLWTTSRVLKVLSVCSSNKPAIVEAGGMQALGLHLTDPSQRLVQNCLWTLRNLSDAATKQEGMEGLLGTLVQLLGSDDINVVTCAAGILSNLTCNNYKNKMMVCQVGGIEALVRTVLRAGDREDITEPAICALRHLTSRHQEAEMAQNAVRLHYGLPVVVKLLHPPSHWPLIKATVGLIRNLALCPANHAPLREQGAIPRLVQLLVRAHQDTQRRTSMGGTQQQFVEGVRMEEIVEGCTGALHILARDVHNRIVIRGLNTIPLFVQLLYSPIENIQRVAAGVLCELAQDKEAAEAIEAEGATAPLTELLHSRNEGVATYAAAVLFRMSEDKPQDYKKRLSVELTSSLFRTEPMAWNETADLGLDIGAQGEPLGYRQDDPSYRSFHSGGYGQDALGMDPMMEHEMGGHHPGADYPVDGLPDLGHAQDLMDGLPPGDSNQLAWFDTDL
test summary: Fluorescence polarization IC50 (beta-catenin / 5FAM-TCF4 10-53 competition)
Format: binding
setup conditions: fluorescence polarization; read-out: beta-Catenin FP IC50
Scale note: pIC50 = -log10(concentration in M).

Check full-length beta-Catenin (Uniprot ID P35222) (Homo sapiens, UniProt P35222) data and give pIC50 for CC(=O)N1CCC[C@]12CC=CCCCC1(CCCC=CCCCCCC[C@@](C)(C(=O)N[C@@H](Cc3ccccc3)C(=O)N[C@@H](Cc3csc4ccccc34)C(=O)N[C@@H](Cc3c[nH]cn3)C(N)=O)NC(=O)[C@H](CC(N)=O)NC(=O)[C@H](Cc3ccccc3)NC(=O)[C@H](C)NC(=O)[C@H](C)NC(=O)[C@H](CCC(=O)O)NC(=O)[C@H](CC(=O)O)NC1=O)NC(=O)[C@H](C)NC(=O)[C@H](CC(=O)O)NC2=O (stereo partly drawn) [I-422] .
7.57

Check full-length beta-Catenin (Uniprot ID P35222) (Homo sapiens, UniProt P35222) data and give pIC50 for CC(=O)N1CCC[C@]12CC=CCCCCC1(CCCCC=CCCCOC(=O)N3CC[C@@](C(=O)N[C@@H](Cc4ccccc4C(F)(F)F)C(=O)N[C@@H](Cc4csc5ccccc45)C(=O)N[C@@H](C)C(N)=O)(C3)NC(=O)[C@H](CC(C)C)NC(=O)[C@H](Cc3ccccc3)NC(=O)[C@H](C)NC(=O)[C@H](CCC(N)=O)NC(=O)[C@H](Cc3cccc(C(=O)O)c3)NC(=O)[C@H](CC(=O)O)NC1=O)NC(=O)[C@H](CC(C)(C)C)NC(=O)[C@H](CC(=O)O)NC2=O (stereo partly drawn) [I-2515] .
5.79

Check full-length beta-Catenin (Uniprot ID P35222) (Homo sapiens, UniProt P35222) data and give pIC50 for CC(=O)N1CCC[C@]12CC=CCCCC1(CCCC=CCCCOC(=O)N3CC[C@@](C(=O)N[C@@H](Cc4ccccc4Cl)C(=O)N[C@@H](Cc4csc5ccccc45)C(=O)N[C@@H](CCC(N)=O)C(N)=O)(C3)NC(=O)[C@H](CC(C)C)NC(=O)[C@H](Cc3ccccc3)NC(=O)[C@H](C)NC(=O)[C@H](C)NC(=O)[C@H](CN(CC(=O)O)CC(F)(F)F)NC(=O)[C@H](CC(=O)O)NC1=O)NC(=O)[C@H](CC(C)(C)C)NC(=O)[C@H](CC(=O)O)NC2=O (stereo partly drawn) [I-1833] .
7.59

Check full-length beta-Catenin (Uniprot ID P35222) (Homo sapiens, UniProt P35222) data and give pIC50 for CC(=O)N1CCC[C@]12CC=CCCCC1(CCCC=CCCCOC(=O)N3CC[C@@](C(=O)N[C@@H](Cc4ccccc4Cl)C(=O)N[C@@H](Cc4csc5ccccc45)C(=O)N[C@@H](CC(=O)N4CCN(C)CC4)C(N)=O)(C3)NC(=O)[C@H]([C@@H](C)O)NC(=O)[C@H](Cc3ccccc3)NC(=O)[C@H](C)NC(=O)[C@H](C)NC(=O)[C@H](CN(CC(=O)O)CC(F)(F)F)NC(=O)[C@H](CC(=O)O)NC1=O)NC(=O)[C@H](CC(C)(C)C)NC(=O)[C@H](CC(=O)O)NC2=O (stereo partly drawn) [I-1611] .
8.00

Check full-length beta-Catenin (Uniprot ID P35222) (Homo sapiens, UniProt P35222) data and give pIC50 for CC(=O)N1CCC[C@]12CC=CCCCC1(CCCC=CCCCOC(=O)N3CC[C@@](C(=O)N[C@@H](Cc4ccsc4)C(=O)N[C@@H](Cc4csc5ccccc45)C(=O)N[C@H](CO)[C@@H](C)O)(C3)NC(=O)[C@H]([C@@H](C)O)NC(=O)[C@H](Cc3ccccc3)NC(=O)[C@H](C)NC(=O)[C@H](C)NC(=O)[C@H](CC(=O)O)NC(=O)[C@H](CC(=O)O)NC1=O)NC(=O)[C@H](CC(C)(C)C)NC(=O)[C@H](CC(=O)O)NC2=O (stereo partly drawn) [I-1306] .
8.22

Check full-length beta-Catenin (Uniprot ID P35222) (Homo sapiens, UniProt P35222) data and give pIC50 for CC(=O)N1CCC[C@]12CC=CCCCC1(CCCC=CCOC(=O)N3CC(C(=O)N[C@@H](Cc4ccsc4)C(=O)N[C@@H](Cc4csc5ccccc45)C(=O)N[C@@H](CCC(N)=O)C(N)=O)(C3)NC(=O)[C@H](CC(C)C)NC(=O)[C@H](Cc3ccccc3)NC(=O)[C@H](C)NC(=O)[C@H](C)NC(=O)[C@H](CC(=O)O)NC(=O)[C@H](CC(=O)O)NC1=O)NC(=O)[C@H](CC(C)(C)C)NC(=O)[C@H](CC(=O)O)NC2=O (stereo partly drawn) [I-1828] .
6.58
